Source: PubChem BioAssay AID1845196

# Tested on: 292921-168-R tumor spheroid viability
# protocol.details: Anticancer human tumor 292921-168-R patient-derived pancreatic carcinoma cell line growth inhibition
# study.conditions: second compound 3.16 µM; first compound 0.316 µM; hits give low values; spheroids with HUVEC and MSC
Hi! Just check whether viability, T/C is below 90%. Below gives Criterion met, equal or above gives Criterion not met.

Lab note: viability, T/C threshold 90%. Does this compound come in strictly under it? COc1ccc([C@@H](O)c2cc(-c3ncnc4cc(N5CCOCC5)ccc34)c(F)cc2Cl)nn1 + Cn1nnc2c(C(N)=O)ncn2c1=O
Criterion met

---

# Tested on: 292921-168-R tumor spheroid viability
# protocol.details: Anticancer human tumor 292921-168-R cell line growth inhibition;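 further: spheroids exposed to compounds for 7 days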
# study.conditions: second compound 0.003 µM; first compound 0.1 µM; hits give low values; spheroids with HUVEC and MSC
Hi! Just check whether viability, T/C is below 10%. Below gives class 1, equal or above gives class 0.

{"molecule": "[2H]c1nc(C)nc([2H])c1-c1cc(NC[C@@H](C)c2cccc3c(C(=O)NC)ccnc23)ncn1 + COc1cc2c(cc1O)CCNC21CSC2c3c(OC(C)=O)c(C)c4c(c3C(COC1=O)N1C(O)C3Cc5cc(C)c(OC)c(O)c5C(C21)N3C)OCO4", "class": "class 1"}

Lab note: viability, T/C threshold 10%. Does this molecule come in strictly under it? CC1COCCN1c1cc(-c2ccnn2C)c2ccnc(-c3ccn[nH]3)c2n1 (stereo not given) + CC[C@@]1(O)C(=O)OCc2c1cc1n(c2=O)Cc2cc3c(CN(C)C)c(O)ccc3nc2-1
class 0

One more molecule: [2H]c1nc(C)nc([2H])c1-c1cc(NC[C@@H](C)c2cccc3c(C(=O)NC)ccnc23)ncn1 + CC[C@@]1(O)C(=O)OCc2c1cc1n(c2=O)Cc2cc3c(CN(C)C)c(O)ccc3nc2-1
class 0

One more molecule: COc1cc(C)[nH]c(=O)c1CN1CCc2c(Cl)cc(C(OC)C3COC3)c(Cl)c2C1=O (stereo not given) + CC[C@@]1(O)C(=O)OCc2c1cc1n(c2=O)Cc2cc3c(CN(C)C)c(O)ccc3nc2-1
class 0

One more molecule: COc1ccc([C@@H](O)c2cc(-c3ncnc4cc(N5CCOCC5)ccc34)c(F)cc2Cl)nn1 + COc1cc2c(cc1O)CCNC21CSC2c3c(OC(C)=O)c(C)c4c(c3C(COC1=O)N1C(O)C3Cc5cc(C)c(OC)c(O)c5C(C21)N3C)OCO4
class 1

---

# System: 292921-168-R tumor spheroid viability
# protocol.details: Anticancer human tumor 292921-168-R cell line growth inhibition;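 further: spheroids exposed to compounds for 7 days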
# study.conditions: second compound 31.6 µM; first compound 3.16 µM; hits give low values; spheroids with HUVEC and MSC
Hi! Just check whether viability, T/C is below 60%. Below gives satisfied, equal or above gives not satisfied.

Solved cases below.
{"molecule": "COc1ccc([C@@H](O)c2cc(-c3ncnc4cc(N5CCOCC5)ccc34)c(F)cc2Cl)nn1 + Cn1nnc2c(C(N)=O)ncn2c1=O", "class": "satisfied"}
{"molecule": "Cc1cc(C)c(CNC(=O)c2cc(-c3ccc(CN4CCOCC4)cc3)cc3c2cnn3C2CCCC2)c(=O)[nH]1 + Cn1nnc2c(C(N)=O)ncn2c1=O", "class": "not satisfied"}
{"molecule": "[2H]c1nc(C)nc([2H])c1-c1cc(NC[C@@H](C)c2cccc3c(C(=O)NC)ccnc23)ncn1 + Cn1nnc2c(C(N)=O)ncn2c1=O", "class": "not satisfied"}
{"molecule": "COc1cc(C)[nH]c(=O)c1CN1CCc2c(Cl)cc(C(OC)C3COC3)c(Cl)c2C1=O (stereo unspecified) + Cn1nnc2c(C(N)=O)ncn2c1=O", "class": "not satisfied"}
{"molecule": "CC1COCCN1c1cc(-c2ccnn2C)c2ccnc(-c3ccn[nH]3)c2n1 (stereo unspecified) + Cn1nnc2c(C(N)=O)ncn2c1=O", "class": "satisfied"}

Below: the item to evaluate.
Lab note: viability, T/C threshold 60%. Does this molecule come in strictly under it? CC(C)n1c(=O)n(C)c2cnc3cc(F)c(-c4ccc(OCCCN5CCCCC5)nc4)cc3c21 + Cn1nnc2c(C(N)=O)ncn2c1=O
not satisfied

---

Property: viability, T/C; scope: individual molecules
# System: 292921-168-R tumor spheroid viability
# protocol.details: Anticancer human tumor 292921-168-R cell line growth inhibition;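 further: spheroids exposed to compounds for 7 days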
# study.conditions: second compound 0.0949 µM; first compound 0.3 µM; hits give low values; spheroids with HUVEC and MSC
Dear colleague, please return just the value in %, with no unit written.

Worked examples, 3 molecules total:
{"molecule": "CNCc1ccc(-c2cc(-c3nc(-c4ccc(S(=O)(=O)C(C)C)cc4)cnc3N)on2)cc1 + CC[C@@]1(O)C(=O)OCc2c1cc1n(c2=O)Cc2cc3c(CN(C)C)c(O)ccc3nc2-1", "value.measured": 10.1}
{"molecule": "Cn1ncnc1[C@H]1c2n[nH]c(=O)c3cc(F)cc(c23)N[C@@H]1c1ccc(F)cc1 + CC[C@@]1(O)C(=O)OCc2c1cc1n(c2=O)Cc2cc3c(CN(C)C)c(O)ccc3nc2-1", "value.measured": 8.52}
{"molecule": "Cc1sc2c(c1C)C(c1ccc(Cl)cc1)=NC(CC(=O)Nc1ccc(O)cc1)c1nnc(C)n1-2 (centres undefined) + CC[C@@]1(O)C(=O)OCc2c1cc1n(c2=O)Cc2cc3c(CN(C)C)c(O)ccc3nc2-1", "value.measured": 3.78}

Consider the molecule O=C(c1cc(Cc2n[nH]c(=O)c3ccccc23)ccc1F)N1CCN(C(=O)C2CC2)CC1 + CC[C@@]1(O)C(=O)OCc2c1cc1n(c2=O)Cc2cc3c(CN(C)C)c(O)ccc3nc2-1 and give its measured viability, T/C.
11.3

---

# System: 292921-168-R tumor spheroid viability
# protocol.details: Anticancer human tumor 292921-168-R cell line growth inhibition;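 further: spheroids exposed to compounds for 7 days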
# study.conditions: second compound 94.9 pM; first compound 1 µM; hits give low values; spheroids with HUVEC and MSC
Property: viability, T/C; scope: individual compounds
Dear colleague, please return just the value in %, with no unit written.

Worked examples, 5 compounds total:
{"compound": "CC1COCCN1c1cc(-c2ccnn2C)c2ccnc(-c3ccn[nH]3)c2n1 (stereo unspecified) + COc1cc2c(cc1O)CCNC21CSC2c3c(OC(C)=O)c(C)c4c(c3C(COC1=O)N1C(O)C3Cc5cc(C)c(OC)c(O)c5C(C21)N3C)OCO4", "units.label": "%", "value.measured": 11.8}
{"compound": "COc1ccc([C@@H](O)c2cc(-c3ncnc4cc(N5CCOCC5)ccc34)c(F)cc2Cl)nn1 + COc1cc2c(cc1O)CCNC21CSC2c3c(OC(C)=O)c(C)c4c(c3C(COC1=O)N1C(O)C3Cc5cc(C)c(OC)c(O)c5C(C21)N3C)OCO4", "units.label": "%", "value.measured": 45.4}
{"compound": "COc1cc(C)[nH]c(=O)c1CN1CCc2c(Cl)cc(C(OC)C3COC3)c(Cl)c2C1=O (stereo unspecified) + COc1cc2c(cc1O)CCNC21CSC2c3c(OC(C)=O)c(C)c4c(c3C(COC1=O)N1C(O)C3Cc5cc(C)c(OC)c(O)c5C(C21)N3C)OCO4", "units.label": "%", "value.measured": 112}
{"compound": "CC(C)n1c(=O)n(C)c2cnc3cc(F)c(-c4ccc(OCCCN5CCCCC5)nc4)cc3c21 + COc1cc2c(cc1O)CCNC21CSC2c3c(OC(C)=O)c(C)c4c(c3C(COC1=O)N1C(O)C3Cc5cc(C)c(OC)c(O)c5C(C21)N3C)OCO4", "units.label": "%", "value.measured": 35.8}
{"compound": "Cc1cc(C)c(CNC(=O)c2cc(-c3ccc(CN4CCOCC4)cc3)cc3c2cnn3C2CCCC2)c(=O)[nH]1 + COc1cc2c(cc1O)CCNC21CSC2c3c(OC(C)=O)c(C)c4c(c3C(COC1=O)N1C(O)C3Cc5cc(C)c(OC)c(O)c5C(C21)N3C)OCO4", "units.label": "%", "value.measured": 102}

Here's the next entry for you.
Consider the compound [2H]c1nc(C)nc([2H])c1-c1cc(NC[C@@H](C)c2cccc3c(C(=O)NC)ccnc23)ncn1 + COc1cc2c(cc1O)CCNC21CSC2c3c(OC(C)=O)c(C)c4c(c3C(COC1=O)N1C(O)C3Cc5cc(C)c(OC)c(O)c5C(C21)N3C)OCO4 and give its measured viability, T/C.
106

---

Property: viability, T/C; scope: individual compounds
# Tested on: 292921-168-R tumor spheroid viability
# protocol.details: Anticancer human tumor 292921-168-R cell line growth inhibition;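 further: spheroids exposed to compounds for 7 days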
# study.conditions: second compound 10 µM; first compound 0.949 µM; hits give low values; spheroids with HUVEC and MSC

{"compound": "O=C(c1cc(Cc2n[nH]c(=O)c3ccccc23)ccc1F)N1CCN(C(=O)C2CC2)CC1 + Cn1nnc2c(C(N)=O)ncn2c1=O", "tgt": "292921-168-R tumor spheroid viability", "value.measured": "96.5%"}
{"compound": "Cn1ncnc1[C@H]1c2n[nH]c(=O)c3cc(F)cc(c23)N[C@@H]1c1ccc(F)cc1 + Cn1nnc2c(C(N)=O)ncn2c1=O", "tgt": "292921-168-R tumor spheroid viability", "value.measured": "23.3%"}
{"compound": "CNCc1ccc(-c2cc(-c3nc(-c4ccc(S(=O)(=O)C(C)C)cc4)cnc3N)on2)cc1 + Cn1nnc2c(C(N)=O)ncn2c1=O", "tgt": "292921-168-R tumor spheroid viability", "value.measured": "20.4%"}

Here's the next entry for you.
Consider the compound Cc1sc2c(c1C)C(c1ccc(Cl)cc1)=NC(CC(=O)Nc1ccc(O)cc1)c1nnc(C)n1-2 (centres undefined) + Cn1nnc2c(C(N)=O)ncn2c1=O and give its measured viability, T/C.
77.3%
